# method_description: self-splicing fitness, log relative to wild type (ln ratio); higher = more splicing; Tetrahymena group I intron in knt gene, E. coli kanamycin selection, DiMSum; sequences stand for … in CUCUCU…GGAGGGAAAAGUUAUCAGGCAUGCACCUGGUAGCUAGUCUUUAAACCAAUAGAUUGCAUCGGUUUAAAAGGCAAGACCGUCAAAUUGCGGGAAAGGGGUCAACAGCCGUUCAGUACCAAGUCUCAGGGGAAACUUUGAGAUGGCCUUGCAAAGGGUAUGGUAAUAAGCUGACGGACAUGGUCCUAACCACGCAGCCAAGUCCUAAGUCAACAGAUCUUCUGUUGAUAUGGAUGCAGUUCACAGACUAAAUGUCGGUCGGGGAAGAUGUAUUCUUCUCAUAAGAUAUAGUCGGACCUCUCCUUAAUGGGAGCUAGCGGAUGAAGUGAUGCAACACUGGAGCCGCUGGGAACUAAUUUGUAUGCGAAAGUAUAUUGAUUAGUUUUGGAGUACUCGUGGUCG;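 further: selection with 25 µg/mL kanamycin versus none on LB agar overnight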
# settings: 37 °C
I'd appreciate it if you could label each record using self-splicing fitness (ln) and these ranges: bottom end: < -2; midrange: ≥ -2 and < -0.8; top end: ≥ -0.8

Ask | Field: class (self-splicing fitness (ln)) — entry: `CAAUAGCAAUAUUACGGGAU`
Reply | bottom end

Ask | Field: class (self-splicing fitness (ln)) — entry: `GCAGAGCAAUAUUACGUUUU`
Reply | bottom end

Ask | Field: class (self-splicing fitness (ln)) — entry: `GUGCAGCAAUAUUACGGUGA`
Reply | top end

Ask | Field: class (self-splicing fitness (ln)) — entry: `GCUUAGCAAUAUUACGAGAU`
Reply | midrange

Ask | Field: class (self-splicing fitness (ln)) — entry: `UCAAAGCAAUAUUACGCCGA`
Reply | top end

Ask | Field: class (self-splicing fitness (ln)) — entry: `GUACAGCAAUAUUACGAGGC`
Reply | midrange

Ask | Field: class (self-splicing fitness (ln)) — entry: `CCGGAGCAAUAUUACGAGUG`
Reply | top end

Ask | Field: class (self-splicing fitness (ln)) — entry: `UCCCAGCAAUAUUACGUGAA`
Reply | top end

Ask | Field: class (self-splicing fitness (ln)) — entry: `UUAUAGCAAUAUUACGUCAU`
Reply | bottom end

Ask | Field: class (self-splicing fitness (ln)) — entry: `CACAAGCAAUAUUACGAUUG`
Reply | midrange

Ask | Field: class (self-splicing fitness (ln)) — entry: `UUGGAGCAAUAUUACGUAAA`
Reply | midrange

Ask | Field: class (self-splicing fitness (ln)) — entry: `CCACAGCAAUAUUACGUAGA`
Reply | midrange

Ask | Field: class (self-splicing fitness (ln)) — entry: `UCAUAGCAAUAUUACGUCCG`
Reply | midrange

Ask | Field: class (self-splicing fitness (ln)) — entry: `UGGCAGCAAUAUUACGUUUA`
Reply | top end

Ask | Field: class (self-splicing fitness (ln)) — entry: `GCCAAGCAAUAUUACGUGUU`
Reply | top end

Ask | Field: class (self-splicing fitness (ln)) — entry: `AACAAGCAAUAUUACGUCCU`
Reply | top end

Ask | Field: class (self-splicing fitness (ln)) — entry: `CGCCAGCAAUAUUACGUGGU`
Reply | bottom end

Ask | Field: class (self-splicing fitness (ln)) — entry: `AAUUAGCAAUAUUACGUUCC`
Reply | midrange

Ask | Field: class (self-splicing fitness (ln)) — entry: `CCACAGCAAUAUUACGCACA`
Reply | bottom end

Ask | Field: class (self-splicing fitness (ln)) — entry: `GAGAAGCAAUAUUACGCUCA`
Reply | midrange

Ask | Field: class (self-splicing fitness (ln)) — entry: `GACUAGCAAUAUUACGUUGC`
Reply | bottom end

Ask | Field: class (self-splicing fitness (ln)) — entry: `GCCAAGCAAUAUUACGGUAG`
Reply | bottom end

Ask | Field: class (self-splicing fitness (ln)) — entry: `AUGCAGCAAUAUUACGACAC`
Reply | top end

Ask | Field: class (self-splicing fitness (ln)) — entry: `GUUAAGCAAUAUUACGGGUU`
Reply | bottom end

Ask | Field: class (self-splicing fitness (ln)) — entry: `GAUAAGCAAUAUUACGGUCU`
Reply | midrange

Ask | Field: class (self-splicing fitness (ln)) — entry: `UCCUAGCAAUAUUACGUAGU`
Reply | midrange

Ask | Field: class (self-splicing fitness (ln)) — entry: `GGUUAGCAAUAUUACGCCUA`
Reply | midrange

Ask | Field: class (self-splicing fitness (ln)) — entry: `CACGAGCAAUAUUACGUGUA`
Reply | bottom end

Ask | Field: class (self-splicing fitness (ln)) — entry: `ACCGAGCAAUAUUACGGGAA`
Reply | bottom end

Ask | Field: class (self-splicing fitness (ln)) — entry: `ACGCAGCAAUAUUACGUUGA`
Reply | midrange

Ask | Field: class (self-splicing fitness (ln)) — entry: `UCCGAGCAAUAUUACGGAGC`
Reply | bottom end

Ask | Field: class (self-splicing fitness (ln)) — entry: `UGGAAGCAAUAUUACGCAUA`
Reply | top end

Ask | Field: class (self-splicing fitness (ln)) — entry: `CUUCAGCAAUAUUACGGUGU`
Reply | bottom end

Ask | Field: class (self-splicing fitness (ln)) — entry: `GCCGAGCAAUAUUACGUAAA`
Reply | midrange

Ask | Field: class (self-splicing fitness (ln)) — entry: `CUUCAGCAAUAUUACGACGC`
Reply | top end

Ask | Field: class (self-splicing fitness (ln)) — entry: `UCACAGCAAUAUUACGACGG`
Reply | top end

Ask | Field: class (self-splicing fitness (ln)) — entry: `AAGCAGCAAUAUUACGGAUG`
Reply | bottom end

Ask | Field: class (self-splicing fitness (ln)) — entry: `AAUAAGCAAUAUUACGUACC`
Reply | midrange

Ask | Field: class (self-splicing fitness (ln)) — entry: `GCCCAGCAAUAUUACGAUAA`
Reply | midrange

Ask | Field: class (self-splicing fitness (ln)) — entry: `CGGAAGCAAUAUUACGGUGC`
Reply | bottom end

Ask | Field: class (self-splicing fitness (ln)) — entry: `CCACAGCAAUAUUACGCUCA`
Reply | bottom end

Ask | Field: class (self-splicing fitness (ln)) — entry: `CGAUAGCAAUAUUACGCAUG`
Reply | top end

Ask | Field: class (self-splicing fitness (ln)) — entry: `GUCCAGCAAUAUUACGCUCU`
Reply | top end

Ask | Field: class (self-splicing fitness (ln)) — entry: `GCCCAGCAAUAUUACGUGGU`
Reply | midrange

Ask | Field: class (self-splicing fitness (ln)) — entry: `ACCAAGCAAUAUUACGACCU`
Reply | top end

Ask | Field: class (self-splicing fitness (ln)) — entry: `GCUUAGCAAUAUUACGUACC`
Reply | top end

Ask | Field: class (self-splicing fitness (ln)) — entry: `UAACAGCAAUAUUACGGCGC`
Reply | midrange

Ask | Field: class (self-splicing fitness (ln)) — entry: `AGUAAGCAAUAUUACGCAGU`
Reply | bottom end

Ask | Field: class (self-splicing fitness (ln)) — entry: `GGUAAGCAAUAUUACGGCGG`
Reply | midrange

Provenance of the data: the supplement of paper PMC7877785
